Where do these numbers come from? They come from patent US20250302832A1.

# measurement.target: HiBit-BRG1 fusion protein (Homo sapiens)
# Construct: expressed in transfected cells
# Sequence (P51532 whole entry, the tested form may be a part): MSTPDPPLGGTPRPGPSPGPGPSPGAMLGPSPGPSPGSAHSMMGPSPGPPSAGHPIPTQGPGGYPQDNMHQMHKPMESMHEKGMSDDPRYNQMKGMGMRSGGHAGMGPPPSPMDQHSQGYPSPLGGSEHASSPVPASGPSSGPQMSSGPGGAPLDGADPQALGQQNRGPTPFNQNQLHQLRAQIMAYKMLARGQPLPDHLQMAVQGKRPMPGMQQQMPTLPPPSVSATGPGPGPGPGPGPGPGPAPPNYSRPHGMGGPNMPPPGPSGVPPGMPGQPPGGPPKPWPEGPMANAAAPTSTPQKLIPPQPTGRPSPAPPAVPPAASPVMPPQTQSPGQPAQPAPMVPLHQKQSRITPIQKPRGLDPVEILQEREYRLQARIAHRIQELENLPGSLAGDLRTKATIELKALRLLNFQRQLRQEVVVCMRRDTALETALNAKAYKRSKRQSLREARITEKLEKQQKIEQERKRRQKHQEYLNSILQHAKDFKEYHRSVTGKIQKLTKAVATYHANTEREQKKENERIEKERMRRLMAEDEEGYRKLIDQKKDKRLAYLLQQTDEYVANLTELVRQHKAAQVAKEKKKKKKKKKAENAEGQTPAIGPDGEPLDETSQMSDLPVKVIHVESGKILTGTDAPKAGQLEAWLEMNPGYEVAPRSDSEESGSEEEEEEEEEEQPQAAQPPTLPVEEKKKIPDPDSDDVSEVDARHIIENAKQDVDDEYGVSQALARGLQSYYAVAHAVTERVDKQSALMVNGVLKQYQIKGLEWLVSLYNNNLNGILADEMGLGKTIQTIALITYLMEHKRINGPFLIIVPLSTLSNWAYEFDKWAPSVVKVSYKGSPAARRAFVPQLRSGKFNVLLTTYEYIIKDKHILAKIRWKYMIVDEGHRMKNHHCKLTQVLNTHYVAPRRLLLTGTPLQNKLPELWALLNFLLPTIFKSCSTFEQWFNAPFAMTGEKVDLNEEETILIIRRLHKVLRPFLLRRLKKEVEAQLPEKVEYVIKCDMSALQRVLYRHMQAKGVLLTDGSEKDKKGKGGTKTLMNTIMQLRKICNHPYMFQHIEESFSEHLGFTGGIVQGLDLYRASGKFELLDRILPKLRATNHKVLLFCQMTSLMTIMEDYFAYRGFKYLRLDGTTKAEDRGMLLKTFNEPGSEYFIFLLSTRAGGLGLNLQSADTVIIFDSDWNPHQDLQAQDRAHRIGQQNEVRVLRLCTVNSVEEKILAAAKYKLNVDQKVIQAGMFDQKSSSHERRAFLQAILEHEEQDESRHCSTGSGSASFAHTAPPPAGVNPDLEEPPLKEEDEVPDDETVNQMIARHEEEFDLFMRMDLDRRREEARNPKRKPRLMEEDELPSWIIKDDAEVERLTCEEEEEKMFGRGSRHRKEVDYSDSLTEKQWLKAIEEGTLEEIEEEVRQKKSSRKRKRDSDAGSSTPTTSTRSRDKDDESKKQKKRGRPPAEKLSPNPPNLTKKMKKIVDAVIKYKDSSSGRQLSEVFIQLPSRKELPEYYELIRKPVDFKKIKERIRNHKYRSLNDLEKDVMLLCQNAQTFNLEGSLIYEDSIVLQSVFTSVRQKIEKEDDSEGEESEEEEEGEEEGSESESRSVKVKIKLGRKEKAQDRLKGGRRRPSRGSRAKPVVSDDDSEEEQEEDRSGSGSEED
# experiment.description: HiBiT-BRG1 cell-based degradation assay (Nano-Glo HiBiT lytic detection, 24 h)
# condition.context: HeLa cell line expressing HiBit-BRG1 and LgBit, read-out: BRMG1 HiBit Degradation IC50
quantity: DC50

INSERT INTO assay_data (structure, value) VALUES
  ('Cc1ncsc1-c1ccc([C@H](C)NC(=O)[C@@H]2C[C@@H](O)CN2C(=O)[C@@H](c2cc(-c3cnc(N4CC[C@H](c5cc6nnc(-c7ccccc7O)cc6n5C5CCC5)C4)nc3)no2)C(C)C)cc1', '> 10 nM'),
  ('Cc1ncsc1-c1ccc([C@H](C)NC(=O)[C@@H]2C[C@@H](O)CN2C(=O)[C@@H](c2cc(OCCN3CCC(c4cc5nnc(-c6ccccc6O)cc5n4C)CC3)no2)C(C)C)cc1', '< 10 nM');

Give DC50 for each listed item.
1. Cc1ncsc1-c1ccc([C@H](C)NC(=O)[C@@H]2C[C@@H](O)CN2C(=O)[C@@H](c2cc(N3CC[C@@H](c4cc5nnc(-c6ccccc6O)cc5n4C4CCC4)C3)no2)C(C)C)cc1
2. Cc1ncsc1-c1ccc([C@H](C)NC(=O)[C@@H]2C[C@@H](O)CN2C(=O)[C@@H](c2cc(N3CCC4(CC[C@H](c5cc6nnc(-c7ccccc7O)cc6n5C5CC5)C4)CC3)no2)C(C)C)cc1
3. Cc1ncsc1-c1ccc([C@H](C)NC(=O)[C@@H]2C[C@@H](O)CN2C(=O)[C@@H](c2cc(OCCN3CC(c4cc5nnc(-c6ccccc6O)cc5n4C(F)F)C3)no2)C(C)C)cc1

["> 10 nM", "> 10 nM", "> 10 nM"]

###

# measurement.target: HiBit-BRM fusion protein (Homo sapiens)
# Construct: expressed in transfected cells
# Sequence (P51531 whole entry, the tested form may be a part): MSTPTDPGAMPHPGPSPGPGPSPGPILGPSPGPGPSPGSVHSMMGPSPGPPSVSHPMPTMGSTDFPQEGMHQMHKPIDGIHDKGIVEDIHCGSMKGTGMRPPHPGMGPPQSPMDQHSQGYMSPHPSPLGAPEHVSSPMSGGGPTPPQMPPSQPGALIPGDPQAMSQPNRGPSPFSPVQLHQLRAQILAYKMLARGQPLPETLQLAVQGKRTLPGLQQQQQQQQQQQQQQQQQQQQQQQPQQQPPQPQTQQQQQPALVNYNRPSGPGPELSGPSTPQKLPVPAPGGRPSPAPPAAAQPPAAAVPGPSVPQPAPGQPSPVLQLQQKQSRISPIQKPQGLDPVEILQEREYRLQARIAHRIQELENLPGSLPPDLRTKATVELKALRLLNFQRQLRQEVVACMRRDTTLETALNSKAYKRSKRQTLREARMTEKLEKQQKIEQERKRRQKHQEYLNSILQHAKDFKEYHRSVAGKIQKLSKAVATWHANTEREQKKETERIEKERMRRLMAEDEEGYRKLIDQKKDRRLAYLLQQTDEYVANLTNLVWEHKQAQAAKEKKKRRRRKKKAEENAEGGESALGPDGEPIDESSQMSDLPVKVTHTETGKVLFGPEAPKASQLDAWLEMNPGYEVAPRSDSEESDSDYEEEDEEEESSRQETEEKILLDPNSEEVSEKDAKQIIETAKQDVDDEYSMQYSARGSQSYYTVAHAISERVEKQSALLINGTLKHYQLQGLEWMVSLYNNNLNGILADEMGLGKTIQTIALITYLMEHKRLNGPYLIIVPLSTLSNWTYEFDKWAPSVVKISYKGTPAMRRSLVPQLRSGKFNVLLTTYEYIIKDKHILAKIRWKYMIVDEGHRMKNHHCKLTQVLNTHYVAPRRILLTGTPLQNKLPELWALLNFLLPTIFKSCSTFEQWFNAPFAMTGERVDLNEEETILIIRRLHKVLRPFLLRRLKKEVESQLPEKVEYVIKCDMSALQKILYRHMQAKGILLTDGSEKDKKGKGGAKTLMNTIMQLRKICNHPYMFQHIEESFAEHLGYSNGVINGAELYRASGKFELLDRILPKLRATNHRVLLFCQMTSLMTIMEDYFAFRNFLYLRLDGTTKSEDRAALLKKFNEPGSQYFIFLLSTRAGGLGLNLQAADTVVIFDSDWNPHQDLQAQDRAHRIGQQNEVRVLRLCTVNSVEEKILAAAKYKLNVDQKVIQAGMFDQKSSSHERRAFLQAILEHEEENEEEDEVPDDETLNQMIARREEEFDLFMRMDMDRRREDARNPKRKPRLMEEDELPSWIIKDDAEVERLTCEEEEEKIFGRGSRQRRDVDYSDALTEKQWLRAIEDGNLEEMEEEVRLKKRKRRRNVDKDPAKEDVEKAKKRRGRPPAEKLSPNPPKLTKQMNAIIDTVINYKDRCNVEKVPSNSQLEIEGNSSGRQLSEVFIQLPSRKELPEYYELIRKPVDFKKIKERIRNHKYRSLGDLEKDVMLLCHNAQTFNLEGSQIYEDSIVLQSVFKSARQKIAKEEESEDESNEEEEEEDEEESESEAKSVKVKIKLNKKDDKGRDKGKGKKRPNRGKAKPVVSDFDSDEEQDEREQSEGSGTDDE
# experiment.description: HiBiT-BRM cell-based degradation assay (Nano-Glo HiBiT lytic detection, 24 h)
# condition.context: HeLa cell line expressing HiBiT-BRM, read-out: BRM HiBit Degradation IC50
Answer each item with its documented DC50.

INSERT INTO results (molecule, measurement_target, quantity, value) VALUES
  ('Cc1ncsc1-c1ccc([C@H](C)NC(=O)[C@@H]2C[C@@H](O)CN2C(=O)[C@@H](c2cc(OCCN3CC(c4cc5nnc(-c6ccccc6O)cc5n4C(F)F)C3)no2)C(C)C)cc1', 'HiBit-BRM fusion protein (Homo sapiens)', 'DC50', '> 10 nM'),
  ('Cc1ncsc1-c1ccc([C@H](C)NC(=O)[C@@H]2C[C@@H](O)CN2C(=O)[C@@H](c2cc(-c3cnc(N4CC[C@@H](c5cc6nnc(-c7ccccc7O)cc6n5C5CCC5)C4)nc3)no2)C(C)C)cc1', 'HiBit-BRM fusion protein (Homo sapiens)', 'DC50', '< 10 nM'),
  ('Cc1ncsc1-c1ccc([C@H](C)NC(=O)[C@@H]2C[C@@H](O)CN2C(=O)[C@H](C(C)C)n2cc(-c3cnc(N4CC[C@@H](c5cc6nnc(-c7ccccc7O)cc6n5C5CC5)C4)nc3)nn2)cc1', 'HiBit-BRM fusion protein (Homo sapiens)', 'DC50', '< 10 nM');

Give DC50 for each listed item.
1. Cc1ncsc1-c1ccc([C@H](C)NC(=O)[C@@H]2C[C@@H](O)CN2C(=O)[C@H](c2cc(-c3cnc(N4CCC(c5cc6nnc(-c7ccccc7O)cc6n5C)CC4)nc3)no2)C(C)C)cc1
2. Cc1ncsc1-c1ccc([C@H](C)NC(=O)[C@@H]2C[C@@H](O)CN2C(=O)[C@@H](c2cc(N3CC[C@@H](c4cc5nnc(-c6ccccc6O)cc5n4C4CCC4)C3)no2)C(C)C)cc1
3. CC(C)C(C(=O)N1C[C@H](O)C[C@H]1C(=O)NC12CC(C1)C2)c1cc(N2CC3(CC(c4cc5nnc(-c6ccccc6O)cc5n4C4CCC4)C3)C2)no1 (some centres unmarked)
4. CC(C)C(C(=O)N1C[C@H](O)C[C@H]1C(=O)NC1CC1)c1cc(N2CC3(CC(c4cc5nnc(-c6ccccc6O)cc5n4C4CCC4)C3)C2)no1 (some centres unmarked)
5. CC[C@H](C)NC(=O)[C@@H]1C[C@@H](O)CN1C(=O)C(c1cc(N2CC3(CC(c4cc5nnc(-c6ccccc6O)cc5n4C4CCC4)C3)C2)no1)C(C)C (some centres unmarked)

1: > 100 nM; 2: < 10 nM; 3: > 10 nM; 4: > 10 nM; 5: > 10 nM

Give DC50 for each listed item.
1. Cc1ncsc1-c1ccc([C@H](C)NC(=O)[C@@H]2C[C@@H](O)CN2C(=O)[C@@H](c2cc(N3CCC4(CC3)CC(c3cc5nnc(-c6ccccc6O)cc5n3C3CC3)C4)no2)C(C)C)cc1
2. Cc1ncsc1-c1ccc([C@H](C)NC(=O)[C@@H]2C[C@@H](O)CN2C(=O)[C@H](c2cc(-c3cnc(N4CC[C@H](c5cc6nnc(-c7ccccc7O)cc6n5C5CC5)C4)nc3)no2)C(C)C)cc1

1: < 10 nM; 2: > 100 nM

Give DC50 for each listed item.
1. Cc1ncsc1-c1ccc([C@H](C)NC(=O)[C@@H]2C[C@@H](O)CN2C(=O)[C@@H](c2cc(-c3cc(N4CC[C@@H](c5cc6nnc(-c7ccccc7O)cc6n5C5CC5)C4)ccn3)no2)C(C)C)cc1 (single isomer, unassigned)
2. Cc1ncsc1-c1ccc([C@H](C)NC(=O)[C@@H]2C[C@@H](O)CN2C(=O)[C@@H](c2cc(N3CC4(CC(c5cc6nnc(-c7ccccc7O)cc6n5C5CCC5)C4)C3)no2)C(C)C)cc1
3. Cc1ncsc1-c1ccc([C@H](C)NC(=O)[C@@H]2C[C@@H](O)CN2C(=O)[C@@H](c2cc(N3C[C@@H]4C(c5cc6nnc(-c7ccccc7O)cc6n5C5CC5)[C@H]4C3)no2)C(C)C)cc1 (some centres unmarked)
4. Cc1ncsc1-c1ccc([C@H](C)NC(=O)[C@@H]2C[C@@H](O)CN2C(=O)[C@@H](c2cc(OCCN3CC(n4ccc5nnc(-c6ccccc6O)cc54)C3)no2)C(C)C)cc1
5. Cc1ncsc1-c1ccc([C@H](C)NC(=O)[C@@H]2C[C@@H](O)CN2C(=O)[C@@H](c2cc(-c3cnc(N4CC[C@@H](c5cc6nnc(-c7ccccc7O)cc6n5C5CC5)C4)nc3)no2)C(C)C)cc1
6. Cc1ncsc1-c1ccc([C@H](C)NC(=O)[C@@H]2C[C@@H](O)CN2C(=O)[C@@H](c2cc(-c3cnc(N4CC[C@H](c5cc6nnc(-c7cccc(F)c7O)cc6n5C5CC5)C4)nc3)no2)C(C)C)cc1
7. Cc1ncsc1-c1ccc(CNC(=O)[C@@H]2C[C@@H](O)CN2C(=O)[C@@H](c2cc(-c3cnc(N4CC[C@H](c5cc6nnc(-c7ccccc7O)cc6n5C5CC5)C4)nc3)no2)C(C)C)cc1

["> 10 nM", "< 10 nM", "< 10 nM", "> 10 nM", "< 10 nM", "< 10 nM", "< 10 nM"]
